Readings of IC50 for the listed compounds
- systemName: UniProtKB P04626
- Sequence (P04626 whole entry): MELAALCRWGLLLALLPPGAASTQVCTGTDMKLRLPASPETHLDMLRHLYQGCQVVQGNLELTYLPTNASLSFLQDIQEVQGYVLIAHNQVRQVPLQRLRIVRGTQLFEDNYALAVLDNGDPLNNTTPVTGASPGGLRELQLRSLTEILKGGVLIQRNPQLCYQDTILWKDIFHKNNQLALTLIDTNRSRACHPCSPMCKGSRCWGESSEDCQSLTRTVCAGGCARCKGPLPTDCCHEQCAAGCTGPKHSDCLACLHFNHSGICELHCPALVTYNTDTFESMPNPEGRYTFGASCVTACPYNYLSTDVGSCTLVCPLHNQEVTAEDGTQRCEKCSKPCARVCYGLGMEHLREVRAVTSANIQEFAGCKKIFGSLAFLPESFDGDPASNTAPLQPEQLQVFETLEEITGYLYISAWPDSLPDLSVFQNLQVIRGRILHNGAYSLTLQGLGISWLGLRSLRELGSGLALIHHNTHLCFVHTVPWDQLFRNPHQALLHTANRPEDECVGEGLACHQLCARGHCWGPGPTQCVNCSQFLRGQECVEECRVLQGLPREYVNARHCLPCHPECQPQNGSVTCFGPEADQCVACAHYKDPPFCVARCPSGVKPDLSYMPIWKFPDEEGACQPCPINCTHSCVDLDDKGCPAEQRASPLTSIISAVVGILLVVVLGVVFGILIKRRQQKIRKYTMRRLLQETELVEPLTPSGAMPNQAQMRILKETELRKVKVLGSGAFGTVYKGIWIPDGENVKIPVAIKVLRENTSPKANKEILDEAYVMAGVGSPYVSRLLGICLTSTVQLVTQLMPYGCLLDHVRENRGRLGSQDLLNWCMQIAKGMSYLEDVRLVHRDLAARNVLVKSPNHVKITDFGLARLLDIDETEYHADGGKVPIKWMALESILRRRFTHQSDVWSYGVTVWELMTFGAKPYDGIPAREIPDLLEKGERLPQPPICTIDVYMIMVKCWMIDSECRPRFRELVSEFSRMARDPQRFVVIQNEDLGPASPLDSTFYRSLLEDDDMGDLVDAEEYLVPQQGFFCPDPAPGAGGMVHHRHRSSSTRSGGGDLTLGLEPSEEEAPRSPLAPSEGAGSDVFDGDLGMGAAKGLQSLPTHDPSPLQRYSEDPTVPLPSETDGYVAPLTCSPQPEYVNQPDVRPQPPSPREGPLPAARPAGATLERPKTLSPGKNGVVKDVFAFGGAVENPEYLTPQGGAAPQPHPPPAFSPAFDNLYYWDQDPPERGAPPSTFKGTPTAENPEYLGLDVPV
- protocolDescription: Inhibition of ErbB2 by time resolved fluorescence assay
Kindly provide the numeric value in nM only, without the unit symbol.

Completed entries (count: 3):
CN(C)CCc1cccc(Nc2nccc(-c3c(-c4cccc(NC(=O)Cc5ccccc5)c4)nc4sccn34)n2)c1    150
O=C(Nc1cccc(-c2nc3sccn3c2-c2ccnc(Nc3cccc(N4CCOCC4)c3)n2)c1)c1c(F)cccc1F    86
CN1CCc2cc(Nc3nccc(-c4c(-c5cccc(NC(=O)Cc6ccccc6)c5)nc5sccn45)n3)ccc2C1    160

Shift focus to the following entry.
Query :: Field: IC50 (UniProtKB P04626). Entry: `O=C(Nc1cccc(-c2nc3sccn3c2-c2ccnc(Nc3ccc(N4CCOCC4)cc3)n2)c1)c1c(F)cccc1F`
Result :: 86

The reported numbers originate from ChEMBL document CHEMBL1156213.
